test: viability loss with induced miR-34 in A549 – imaging, A549 dox-inducible miR-34, nuclei and caspase counts, primary screen (AID 1347080); settings: A549 miR-34 inducible, Hoechst nuclei count, 48 h; hits give low values; cell number ratio, induced over uninduced
Note that class boundaries on fold change are A (below 0.9), B (0.9 to below 1), C (1 or more)

Answered examples (2):
O=C1NC(=O)c2cc(Nc3ccc(F)cc3)c(Nc3ccc(F)cc3)cc21    C
CC1(C)CC(=O)c2c(C(F)(F)F)nn(-c3ccc(C(N)=O)c(NC4CCC(OC(=O)CN)CC4)c3)c2C1 (configuration not stated)    C

Using the reported fold change, which band applies to `CCCCC[C@H](O)/C=C/[C@@H]1[C@@H](CCCCCCC(=O)O)[C@H](O)C[C@H]1O` ? B

Using the reported fold change, which band applies to O=C1C(c2ccccc2)N(c2ccc(Br)cc2)C(=O)N1c1ccc(Br)cc1 (configuration not stated) ? B

Using the reported fold change, which band applies to O=C(Nc1ccc(-c2ccnc(Nc3ccc(N4CCOCC4)cc3)n2)cc1)C1CCCN1 (configuration not stated) ? A

Using the reported fold change, which band applies to `CCCCCCCCCCCCCCCCOC[C@H](COP(=O)([O-])OCC[N+](C)(C)C)OC(=O)CCC` ? A

Using the reported fold change, which band applies to `COC(=O)C1=C(C)NC(C)=C(C(=O)OCCCN2CCC(c3ccccc3)(c3ccccc3)CC2)[C@@H]1c1cccc([N+](=O)[O-])c1` ? C

Using the reported fold change, which band applies to `CCCCC[C@H](O)/C=C/[C@@H]1[C@H](C/C=C\CCCC(=O)NCCO)[C@@H](O)C[C@H]1O` ? C

Using the reported fold change, which band applies to `CN(NC(=O)CC(=O)NN(C)C(=S)c1ccccc1)C(=S)c1ccccc1` ? A

Using the reported fold change, which band applies to Cc1c(NC(=O)OCC2COCCN2)cn2ncnc(Nc3ccc4c(cnn4Cc4cccc(F)c4)c3)c12 (configuration not stated) ? C

###

assay: drug combination toxicity in non-malignant astrocytes – cell-based, BGB or cisplatin IC20 combos, cytotoxicity control for chromothriptic childhood tumor combination screen (AID 1671460); conditions: Human astrocytes, viability inhibition, drug combinations; at 0.5 µM; hits give high values;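 also: cells exposed to compounds for 96 hours before viability readout; 0% = vehicle and 100% = killing control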
Response field label: string, one of Yes (inhibition strictly below 20%) or No.

Answered examples (9):
O=c1cc(N2CCOCC2)oc2c(-c3cccc4c3sc3ccccc34)cccc12    Yes
O=C(CCCCCCNC(=O)c1cnc(N(c2ccccc2)c2ccccc2Cl)nc1)NO    Yes
COc1ccc(C(=O)C2CCN(CC(=O)N(Cc3nc4c(c(=O)[nH]3)COCC4)CC3CC3)CC2)cc1    No
O=c1[nH]c([C@@H]2CCCN2)nc2c1oc1ccc(Cl)cc12    Yes
CN[C@@H]1CN(c2ccc3c(=O)c(C(=O)O)cn(-c4nccs4)c3n2)C[C@H]1OC    No
O=c1cc(N2CCOCC2)oc2c1ccc1ccccc12    Yes
COc1cc2ncnc(-n3nc(-c4ccccn4)nc3N)c2cc1OC    Yes
CC(=O)[C@]1(N)Cc2c(O)c3c(c(O)c2[C@@H](O[C@H]2C[C@H](O)[C@H](O)CO2)C1)C(=O)c1ccccc1C3=O    No
Nc1ccccc1NC(=O)c1ccc(CNc2nccc(-c3cccnc3)n2)cc1    No

Is 20% strictly greater than the molecule's reported inhibition? molecule: `CS(=O)(=O)c1ccc(-c2nnc(/C=C/c3nnc(-c4ccc(C#N)cc4)o3)n2-c2ccccc2Cl)nc1` No

###

experiment: JHH-DIPG-1 glioma cell viability, MIPE5.0 library, CellTiter-Glo luminescence, qHTS (AID 1347067); details: JHH-DIPG-1 glioma viability, CellTiter-Glo ATP luminescence;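 also: cells exposed to compound for 48 hours before readout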
Records with an inconclusive call do not appear. Calls of active or inactive are those of the source. Cut-off not given; nearly all actives show AC50 up to about 26 µM.
Respond only with the outcome that fits, drawn from 1 (active), -1 (inactive)

Cc1cncc2cccc(S(=O)(=O)N3CCCN(C(=O)CN)C[C@@H]3C)c12    -1
COc1ccc(C(=O)CC2(O)C(=O)Nc3c(Cl)ccc(Cl)c32)cc1 (stereo not given)    1
CO[C@H]1/C=C/O[C@@]2(C)Oc3c(C)c(O)c4c(O)c(c(/C=N/N5CCN(C)CC5)c(O)c4c3C2=O)NC(=O)/C(C)=C\C=C\[C@H](C)[C@H](O)[C@@H](C)[C@@H](O)[C@@H](C)[C@H](OC(C)=O)[C@@H]1C    -1
CN1CCCN(C(=O)c2cccc(-c3ccc(/C=C4/C(=O)Nc5ccc(Cl)cc54)o3)c2)CC1    1
CN[C@@H](C)C(=O)N[C@H](C(=O)N1CCC[C@H]1c1nc(C(=O)c2ccc(F)cc2)cs1)C1CCCCC1    -1

# lookup: test call for `Cc1cccc(-c2[nH]c(C(C)(C)C)nc2-c2ccc3nccnc3c2)n1` 1

# lookup: test call for `CC(C)c1cc(C(=O)N2Cc3ccc(CN4CCN(C)CC4)cc3C2)c(O)cc1O` 1

# lookup: test call for `Cc1cc(OCc2nnc(SC3CCCC3)n2-c2cccnc2)ccc1-c1ccc(S(C)(=O)=O)cc1` 1

# lookup: test call for `CCCCOc1ccc(C(=O)Nc2ccc(F)cc2F)cc1` -1

# lookup: test call for `Cc1cc(Nc2cc(CN3CCOCC3)c3nc(C)c(Cc4ccc(Cl)cc4F)n3n2)n[nH]1` 1

# lookup: test call for `CN(C)C/C=C/C(=O)Nc1ccc(C(=O)N2CCC[C@@H](Nc3ncc(Cl)c(-c4c[nH]c5ccccc45)n3)C2)cc1` 1

# lookup: test call for `O=C(Nc1cnn2ccc(N3CCC[C@@H]3c3cc(F)ccc3F)nc12)N1CC[C@H](O)C1` -1

# lookup: test call for `c1ccc(-c2nn3c(c2-c2ccnc4cc(OCCN5CCOCC5)ccc24)CCC3)nc1` -1

# lookup: test call for `O=C(O)[C@H](CC(=O)N1C[C@H]2CCCC[C@H]2C1)Cc1ccccc1` -1

# lookup: test call for `COc1cc2c(cc1OC)CN(CCc1ccc(NC(=O)c3cccc4c(=O)c5cccc(OC)c5[nH]c34)cc1)CC2` -1

# lookup: test call for CC[C@@H]1C(=O)N(C)c2cnc(Nc3ccc(C(=O)NC4CCC(N5CCN(CC6CC6)CC5)CC4)cc3OC)nc2N1C(C)C (stereo not given in full) 1

# lookup: test call for `c1ccc2c(-c3cnn4cc(-c5ccc(OCCN6CCOCC6)cc5)cnc34)ccnc2c1` 1

# lookup: test call for `CCOC(=O)[C@@H](N)Cc1ccc(-c2cc(O[C@H](c3ccc(Cl)cc3-n3ccc(C)n3)C(F)(F)F)nc(N)n2)cc1` 1

# lookup: test call for `CCN(CC)CCCCNc1nc2cc(Cl)c(Cl)cc2nc1-c1ccc(-c2cccs2)s1` 1

# lookup: test call for C[C@@H]1C(=O)O[C@H]2CC34[C@H]5C[C@@H](C(C)(C)C)C36[C@@H](OC(=O)[C@@H]6O)O[C@@]4(C(=O)O5)[C@]21O (stereo not given in full) -1

###

test: P. berghei load reduction in hepatocytes – cell-based, HepG2, luciferase luminescence, HepG2 viability, primary screen (AID 624349);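 also: 100% = mean of DMSO negative control wells on the same plate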; conditions: P. berghei liver stage in HepG2, luciferase luminescence, concentration not given here; hits give low values
Response field label: string, one of Satisfied (parasite load remaining strictly below 50%) or Not satisfied.

O=c1cc(N2CCOCC2)oc2c1ccc1ccccc12    Satisfied

Is 50% strictly greater than the compound's reported parasite load remaining? compound: O=C(NC(NC(=S)Nc1ccc(F)c([N+](=O)[O-])c1)C(Cl)(Cl)Cl)C(c1ccccc1)c1ccccc1 (centres undefined) Satisfied

Is 50% strictly greater than the compound's reported parasite load remaining? compound: `NC(=O)c1cc[n+](CC2=C(C(=O)O)N3C(=O)[C@@H](NC(=O)[C@@H](c4ccccc4)S(=O)(=O)[O-])[C@H]3SC2)cc1` Not satisfied

Is 50% strictly greater than the compound's reported parasite load remaining? compound: `COc1cc2nccc(Oc3ccc(NC(=O)Nc4cc(C)on4)c(Cl)c3)c2cc1OC` Satisfied

Is 50% strictly greater than the compound's reported parasite load remaining? compound: `COc1ccc2c(c1)c(C1=C(c3c[nH]c4ccccc34)C(=O)NC1=O)cn2CCCN(C)C` Satisfied

Is 50% strictly greater than the compound's reported parasite load remaining? compound: `CCN(CC)CCCCN1c2ccccc2Oc2ccc(Cl)cc21` Satisfied

Is 50% strictly greater than the compound's reported parasite load remaining? compound: `COc1cc2ncnc(Nc3ccc(Oc4ccccc4)cc3)c2cc1OC` Satisfied

Is 50% strictly greater than the compound's reported parasite load remaining? compound: `C=CC[N+]1([C@H]2C[C@H]3[C@@H]4CC[C@H]5C[C@H](O)[C@@H](N6CCOCC6)C[C@]5(C)[C@H]4CC[C@]3(C)[C@H]2OC(C)=O)CCCC1` Satisfied

Is 50% strictly greater than the compound's reported parasite load remaining? compound: `CN[C@@H]1C[C@H]2O[C@@](C)([C@@H]1OC)n1c3ccccc3c3c4c(c5c6ccccc6n2c5c31)C(=O)N[C@H]4O` Not satisfied
